# Test System: Aromatase (Homo sapiens)
# Construct: Microsomes of human placenta; from tissue; host or cells: human placenta, microsomes
# Sequence (P11511 whole entry): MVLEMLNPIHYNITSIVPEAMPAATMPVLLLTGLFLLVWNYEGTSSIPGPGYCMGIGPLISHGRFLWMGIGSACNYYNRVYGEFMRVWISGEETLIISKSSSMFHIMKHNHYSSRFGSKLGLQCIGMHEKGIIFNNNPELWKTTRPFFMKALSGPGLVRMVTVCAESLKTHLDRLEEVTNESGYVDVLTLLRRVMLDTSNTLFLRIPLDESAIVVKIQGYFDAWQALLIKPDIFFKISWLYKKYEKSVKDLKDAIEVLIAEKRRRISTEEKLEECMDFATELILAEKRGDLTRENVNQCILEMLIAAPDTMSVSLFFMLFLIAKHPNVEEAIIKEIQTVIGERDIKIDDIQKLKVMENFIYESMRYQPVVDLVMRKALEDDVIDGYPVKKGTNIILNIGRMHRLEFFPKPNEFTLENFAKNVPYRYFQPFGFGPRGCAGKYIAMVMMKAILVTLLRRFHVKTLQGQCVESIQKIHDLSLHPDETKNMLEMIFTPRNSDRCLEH
# Protocol Notes: Aromatase-inhibiting activity (radiometric, H^14COOH release; method of Covey et al.)
# Assay type: biochemical
# Measurement Conditions: read-out: IC50 (50% aromatase activity-inhibiting concentration); Table 1; microsomes of human placenta, [19-14C] 4-androstene-3,17-dione 1×10^-6 M, 37° C., 30 minutes
Readout Type: pIC50
The quantity pIC50 is defined as the negative base-10 logarithm of the molar concentration.

Asked: Please look up its pIC50: O[C@@]1(Cc2ccc(Cl)cc2)CCC[C@H]1Cn1ccnc1 (stereo in doubt)
Given back: 7.26
